study system: furin, P09958;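 further: purified furin at 1:10 enzyme:substrate in 50 mM HEPES pH 7.5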
Sequence (P09958 whole entry): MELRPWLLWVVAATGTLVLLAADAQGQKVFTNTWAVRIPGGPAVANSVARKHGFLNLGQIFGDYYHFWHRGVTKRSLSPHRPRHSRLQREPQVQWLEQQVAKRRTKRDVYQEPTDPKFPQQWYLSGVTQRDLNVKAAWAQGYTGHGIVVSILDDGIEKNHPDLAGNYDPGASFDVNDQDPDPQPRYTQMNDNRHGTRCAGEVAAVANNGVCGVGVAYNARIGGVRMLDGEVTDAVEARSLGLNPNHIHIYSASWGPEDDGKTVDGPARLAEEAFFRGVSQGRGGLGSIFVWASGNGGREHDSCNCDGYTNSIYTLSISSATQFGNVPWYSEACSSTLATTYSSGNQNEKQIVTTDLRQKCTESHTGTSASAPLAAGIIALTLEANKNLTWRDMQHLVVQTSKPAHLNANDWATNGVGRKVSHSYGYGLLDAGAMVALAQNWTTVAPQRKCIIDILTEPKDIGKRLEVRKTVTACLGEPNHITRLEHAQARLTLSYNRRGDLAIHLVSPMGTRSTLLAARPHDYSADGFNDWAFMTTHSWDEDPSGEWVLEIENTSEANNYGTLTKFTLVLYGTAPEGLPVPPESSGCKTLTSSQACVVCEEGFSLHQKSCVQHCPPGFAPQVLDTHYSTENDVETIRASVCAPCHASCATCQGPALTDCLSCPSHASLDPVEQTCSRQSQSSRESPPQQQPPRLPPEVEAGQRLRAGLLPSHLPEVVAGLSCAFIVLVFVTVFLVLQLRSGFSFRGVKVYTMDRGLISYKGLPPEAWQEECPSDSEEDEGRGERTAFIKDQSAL
experiment: furin cleavage Z-score vs untreated control; higher = more cleavage, active = 3.5 or more, inactive = 1 or less, 8 variable residues between constant flanks
experimental parameters: 30 min
This is one part of the list. The true hit rate is not given.
Assign y whenever furin cleavage Z-score does not fall below 7; assign n whenever it does.

# residue string, cat
data = [
    ("CAPSFRDRRAAGNASASA [FS-1244]", "y"),
    ("CAMSTRKARIAGNASASA [FS-277]", "n"),
    ("CALHRRQKRIAGNASASA [FS-821]", "y"),
    ("CACSFTTLPAAGNASASA [HC499]", "n"),
    ("CARVQRMAEHAGNASASA [FS-2841]", "n"),
    ("CASEECSQHLAGNASASA [HC1677]", "n"),
    ("CARRKRKKKHAGNASASA [FS-1777]", "n"),
    ("CAKLNRKYRSAGNASASA [FS-1132]", "n"),
    ("CAMESCSQHLAGNASASA [HC1717]", "n"),
    ("CANDCPNSSIAGNASASA [HC263]", "n"),
    ("CARRKRYAIQAGNASASA [FS-3205]", "y"),
    ("CAKQSGENLPAGNASASA [HC949]", "n"),
    ("CARRKRCMRHAGNASASA [FS-2295]", "n"),
    ("CAVPSRQSRAAGNASASA [FS-207]", "y"),
]
